Test system: SMMC-7721
Assay: Antitumor activity against human SMMC-7721 cells measured after 24 hrs
Format: functional, cell-based
Conditions: SMMC-7721, 24 h
pIC50: −log10 of the molar value.

| molecule | pIC50 |
| --- | --- |
| CC1=CC(=O)c2c(O)cccc2C1=O [PLUMBAGIN] | 5.61 |

###

Test system: SK-N-BE(2)
Test: Antiproliferative activity against human SK-N-BE(2) cells by CCK-8 assay
Format: functional, cell-based
Conditions: SKNBE2
property_label: IC50

| compound | result |
| --- | --- |
| O=C(/C=C\n1cnc(-c2cc(C(F)(F)F)cc(C(F)(F)F)c2)n1)NNc1ccccn1 [VERDINEXOR] | 1400 nM |

This collection of values is drawn from ChEMBL document CHEMBL5230156.
